- Tested on: PC-3 PIP/flu tumor-bearing mice
- PROTOCOL_DESCRIPTION: Biodistribution studies in PC-3 PIP/flu tumor-bearing mice
- MEASUREMENT_PARAMETERS: 24 h p.i.
OBSERVED_PROPERTY: Blood (% IA/g)
A number alone suffices; assume % IA/g.

>>> value("O=C(O)CCC(NC(=O)NC(CCCCNC(=O)C(Cc1ccc2ccccc2c1)NC(=O)C1CCC(n2cc(CC(NC(=O)CN3CCN(CC(=O)O)CCN(CC(=O)O)CCN(CC(=O)O)CC3)C(=O)NC(CCCCNC(=O)CCCc3ccc(I)cc3)C(=O)O)nn2)CC1)C(=O)O)C(=O)O (centres unmarked) [^177Lu-PSMA-ALB-01, metal not drawn]")
14.2

# ---- query molecule ----
// returns reported Blood for input Cc1ccc(CCCC(=O)NC(CC(=O)NC(CC(=O)NC(CC(=O)NC(CCCCNC(=O)CN2CCN(CC(=O)O)CCN(CC(=O)O)CCN(CC(=O)O)CC2)C(=O)NCC2CCC(C(=O)NC(Cc3ccc4ccccc4c3)C(=O)NCCCCC(NC(=O)NC(CCC(=O)O)C(=O)O)C(=O)O)CC2)C(=O)O)C(=O)O)C(=O)O)cc1 (centres unmarked) [^177Lu-PSMA-ALB-08, metal not drawn]
0.08

---

- Tested on: PC-3 PIP/flu tumor-bearing mice
- PROTOCOL_DESCRIPTION: Biodistribution studies in PC-3 PIP/flu tumor-bearing mice
- MEASUREMENT_PARAMETERS: 192 h p.i.
OBSERVED_PROPERTY: Intestines
Answer shape: numeric part, then the unit.

>>> value("O=C(O)CCC(NC(=O)NC(CCCCNC(=O)C(Cc1ccc2ccccc2c1)NC(=O)C1CCC(n2cc(CC(NC(=O)CN3CCN(CC(=O)O)CCN(CC(=O)O)CCN(CC(=O)O)CC3)C(=O)NC(CCCCNC(=O)CCCc3ccc(I)cc3)C(=O)O)nn2)CC1)C(=O)O)C(=O)O (stereo not shown) [^177Lu-PSMA-ALB-01, metal not drawn]")
"1.02 ± 0.25 % IA/g"
>>> value("O=C(O)CCC(NC(=O)NC(CCCCNC(=O)C(Cc1ccc2ccccc2c1)NC(=O)C1CCC(CNC(=O)C(CCCCNC(=O)CN2CCN(CC(=O)O)CCN(CC(=O)O)CCN(CC(=O)O)CC2)NC(=O)CCCCCCC(=O)NC(CCCCNC(=O)CCCc2ccc(I)cc2)C(=O)O)CC1)C(=O)O)C(=O)O (stereo not shown) [^177Lu-PSMA-ALB-04, metal not drawn]")
"0.67 ± 0.15 % IA/g"
>>> value("O=C(O)CCC(NC(=O)NC(CCCCNC(=O)C(Cc1ccc2ccccc2c1)NC(=O)C1CCC(CNC(=O)C(CCCCNC(=O)CN2CCN(CC(=O)O)CCN(CC(=O)O)CCN(CC(=O)O)CC2)NC(=O)CC(NC(=O)CC(NC(=O)CCCc2ccc(I)cc2)C(=O)O)C(=O)O)CC1)C(=O)O)C(=O)O (stereo not shown) [^177Lu-PSMA-ALB-05, metal not drawn]")
"0.24 ± 0.04 % IA/g"

# ---- query molecule ----
// returns reported Intestines for input O=C(O)CCC(NC(=O)NC(CCCCNC(=O)C(Cc1ccc2ccccc2c1)NC(=O)C1CCC(CNC(=O)C(CCCCNC(=O)CCCc2ccc(I)cc2)NC(=O)CN2CCN(CC(=O)O)CCN(CC(=O)O)CCN(CC(=O)O)CC2)CC1)C(=O)O)C(=O)O (stereo not shown) [^177Lu-PSMA-ALB-03, metal not drawn]
0.96 ± 0.03 % IA/g

---

Recorded Tumor-to-liver values for a group of compounds are listed next.
- Test system: PC-3 PIP/flu tumor-bearing mice
- PROTOCOL_DESCRIPTION: Biodistribution studies in PC-3 PIP/flu tumor-bearing mice
- MEASUREMENT_PARAMETERS: 1 h p.i.; PC-3 PIP tumor

>>> value("O=C(O)CCC(NC(=O)NC(CCCCNC(=O)C(Cc1ccc2ccccc2c1)NC(=O)C1CCC(n2cc(CC(NC(=O)CN3CCN(CC(=O)O)CCN(CC(=O)O)CCN(CC(=O)O)CC3)C(=O)NC(CCCCNC(=O)CCCc3ccc(I)cc3)C(=O)O)nn2)CC1)C(=O)O)C(=O)O (centres unmarked) [^177Lu-PSMA-ALB-01, metal not drawn]")
"1.56 ± 0.30"

# ---- query compound ----
// returns reported Tumor-to-liver for input Cc1ccc(CCCC(=O)NCCCCC(NC(=O)CN2CCN(CC(=O)O)CCN(CC(=O)O)CCN(CC(=O)O)CC2)C(=O)NCC2CCC(C(=O)NC(Cc3ccc4ccccc4c3)C(=O)NCCCCC(NC(=O)NC(CCC(=O)O)C(=O)O)C(=O)O)CC2)cc1 (centres unmarked) [44Sc-PSMA-ALB-06, metal not drawn]
4.28 ± 0.52

---

- Test system: PC-3 PIP/flu tumor-bearing mice
- PROTOCOL_DESCRIPTION: Biodistribution studies in PC-3 PIP/flu tumor-bearing mice
- MEASUREMENT_PARAMETERS: 4 h p.i.
Recorded Lung values for a group of molecules are listed next.
A number alone suffices; assume % IA/g.

>>> value("O=C(O)CCC(NC(=O)NC(CCCCNC(=O)C(Cc1ccc2ccccc2c1)NC(=O)C1CCC(CNC(=O)C(CCCCNC(=O)CCCc2ccc(I)cc2)NC(=O)CN2CCN(CC(=O)O)CCN(CC(=O)O)CCN(CC(=O)O)CC2)CC1)C(=O)O)C(=O)O (centres unmarked) [^177Lu-PSMA-ALB-03, metal not drawn]")
14.21

# ---- query molecule ----
// returns reported Lung for input O=C(O)CCC(NC(=O)NC(CCCCNC(=O)C(Cc1ccc2ccccc2c1)NC(=O)C1CCC(n2cc(CC(NC(=O)CN3CCN(CC(=O)O)CCN(CC(=O)O)CCN(CC(=O)O)CC3)C(=O)NC(CCCCNC(=O)CCCc3ccc(I)cc3)C(=O)O)nn2)CC1)C(=O)O)C(=O)O (centres unmarked) [^177Lu-PSMA-ALB-01, metal not drawn]
14.1

---

Recorded Tumor-to-kidney values for a group of molecules are listed next.
- System: PC-3 PIP/flu tumor-bearing mice
- PROTOCOL_DESCRIPTION: Biodistribution studies in PC-3 PIP/flu tumor-bearing mice
- MEASUREMENT_PARAMETERS: 24 h p.i.; PC-3 PIP tumor
Answer field: number only, no words.

>>> value("O=C([O-])CN1CCN(CC(=O)[O-])CCN(CC(=O)NCC2CCC(C(=O)N[C@@H](Cc3ccc4ccccc4c3)C(=O)NCCCC[C@H](NC(=O)N[C@@H](CCC(=O)O)C(=O)O)C(=O)O)CC2)CCN(CC(=O)[O-])CC1.[177Lu+3] (some centres unmarked) [^177Lu-PSMA-617, reference compound]")
49

// returns reported Tumor-to-kidney for input O=C(O)CCC(NC(=O)NC(CCCCNC(=O)C(Cc1ccc2ccccc2c1)NC(=O)C1CCC(CNC(=O)C(CCCCNC(=O)CN2CCN(CC(=O)O)CCN(CC(=O)O)CCN(CC(=O)O)CC2)NC(=O)CCCCCCC(=O)NC(CCCCNC(=O)CCCc2ccc(I)cc2)C(=O)O)CC1)C(=O)O)C(=O)O (centres unmarked) [^177Lu-PSMA-ALB-04, metal not drawn]
2.00

---

Recorded Liver values for a group of compounds are listed next.
- Tested on: PC-3 PIP/flu tumor-bearing mice
- PROTOCOL_DESCRIPTION: Biodistribution studies in PC-3 PIP/flu tumor-bearing mice
- MEASUREMENT_PARAMETERS: 4 h p.i.
A number alone suffices; assume % IA/g.

>>> value("O=C(O)CCC(NC(=O)NC(CCCCNC(=O)C(Cc1ccc2ccccc2c1)NC(=O)C1CCC(CNC(=O)C(CCCCNC(=O)CN2CCN(CC(=O)O)CCN(CC(=O)O)CCN(CC(=O)O)CC2)NC(=O)CC(NC(=O)CC(NC(=O)CC(NC(=O)CCCc2ccc(I)cc2)C(=O)O)C(=O)O)C(=O)O)CC1)C(=O)O)C(=O)O (centres unmarked) [^177Lu-PSMA-ALB-07, metal not drawn]")
1.94

# ---- query compound ----
// returns reported Liver for input Cc1ccc(CCCC(=O)NC(CC(=O)NC(CC(=O)NC(CC(=O)NC(CCCCNC(=O)CN2CCN(CC(=O)O)CCN(CC(=O)O)CCN(CC(=O)O)CC2)C(=O)NCC2CCC(C(=O)NC(Cc3ccc4ccccc4c3)C(=O)NCCCCC(NC(=O)NC(CCC(=O)O)C(=O)O)C(=O)O)CC2)C(=O)O)C(=O)O)C(=O)O)cc1 (centres unmarked) [^177Lu-PSMA-ALB-08, metal not drawn]
0.27

---

Recorded Intestines values for a group of compounds are listed next.
- System: PC-3 PIP/flu tumor-bearing mice
- PROTOCOL_DESCRIPTION: Biodistribution studies in PC-3 PIP/flu tumor-bearing mice
- MEASUREMENT_PARAMETERS: 48 h p.i.
A number alone suffices; assume % IA/g.

Here is how some compounds turned out for Intestines.
>>> value("O=C(O)CCC(NC(=O)NC(CCCCNC(=O)C(Cc1ccc2ccccc2c1)NC(=O)C1CCC(n2cc(CC(NC(=O)CN3CCN(CC(=O)O)CCN(CC(=O)O)CCN(CC(=O)O)CC3)C(=O)NC(CCCCNC(=O)CCCc3ccc(I)cc3)C(=O)O)nn2)CC1)C(=O)O)C(=O)O (stereo not shown) [^177Lu-PSMA-ALB-01, metal not drawn]")
1.84
>>> value("O=C(O)CCC(NC(=O)NC(CCCCNC(=O)C(Cc1ccc2ccccc2c1)NC(=O)C1CCC(CNC(=O)C(CCCCNC(=O)CN2CCN(CC(=O)O)CCN(CC(=O)O)CCN(CC(=O)O)CC2)NC(=O)CC(NC(=O)CC(NC(=O)CCCc2ccc(I)cc2)C(=O)O)C(=O)O)CC1)C(=O)O)C(=O)O (stereo not shown) [^177Lu-PSMA-ALB-05, metal not drawn]")
0.28
>>> value("O=C(O)CCC(NC(=O)NC(CCCCNC(=O)C(Cc1ccc2ccccc2c1)NC(=O)C1CCC(CNC(=O)C(CCCCNC(=O)CCCc2ccc(I)cc2)NC(=O)CN2CCN(CC(=O)O)CCN(CC(=O)O)CCN(CC(=O)O)CC2)CC1)C(=O)O)C(=O)O (stereo not shown) [^177Lu-PSMA-ALB-03, metal not drawn]")
1.73

# ---- query compound ----
// returns reported Intestines for input O=C(O)CCC(NC(=O)NC(CCCCNC(=O)C(Cc1ccc2ccccc2c1)NC(=O)C1CCC(CNC(=O)C(CCCCNC(=O)CN2CCN(CC(=O)O)CCN(CC(=O)O)CCN(CC(=O)O)CC2)NC(=O)CCCCCCC(=O)NC(CCCCNC(=O)CCCc2ccc(I)cc2)C(=O)O)CC1)C(=O)O)C(=O)O (stereo not shown) [^177Lu-PSMA-ALB-04, metal not drawn]
7.27
